# MIC99 annotations
system: Mycobacterium kansasii; assay: Antimycobacterial activity against Mycobacterium kansasii CNCTC My 235/80 after 14 days; type: functional; settings: CNCTC My 235/80, 336 h

• CCNC(=S)NNC(=O)c1cc([N+](=O)[O-])cc([N+](=O)[O-])c1 = > 32 µM

**Q:** Answer with the recorded MIC99 for the compound listed here: "NNC(=O)c1ccncc1"
**A:** > 250 µM

**Q:** Answer with the recorded MIC99 for the compound listed here: "Cc1ccc(-c2nnc(SCc3cc([N+](=O)[O-])cc(C(F)(F)F)c3)n2Cc2ccccc2)cc1"
**A:** > 32 µM

**Q:** Answer with the recorded MIC99 for the compound listed here: "COc1ccc(CSc2nnc(-c3ccccc3)n2Cc2cc([N+](=O)[O-])cc([N+](=O)[O-])c2)cc1"
**A:** > 32 µM

###

test system: Mycobacterium kansasii; assay: Antimycobacterial activity against Mycobacterium kansasii 6509/96 after 21 days; type: functional; conditions: 6509/96, 504 h
assay.metric: MIC99 (µM)
Please respond with the number in µM and leave the unit unwritten.

Study these solved cases before continuing.
• O=[N+]([O-])c1cc(CSc2nnc(-c3ccccc3)n2Cc2ccccc2)cc([N+](=O)[O-])c1 = 8
• O=[N+]([O-])c1cc(-c2nnc(SCc3ccccc3)n2Cc2ccccc2)cc([N+](=O)[O-])c1 = 0.03

**Q:** Answer with the recorded MIC99 for the molecule listed here: "CCCCCCCCCCCc1nnc(SCc2cc([N+](=O)[O-])cc([N+](=O)[O-])c2)n1Cc1ccccc1"
**A:** 8

**Q:** Answer with the recorded MIC99 for the molecule listed here: "CCn1c(SCc2ccccc2)nnc1-c1cc([N+](=O)[O-])cc([N+](=O)[O-])c1"
**A:** 0.03

**Q:** Answer with the recorded MIC99 for the molecule listed here: "O=[N+]([O-])c1cc(CSc2nnc(CCCCCO)n2Cc2ccccc2)cc([N+](=O)[O-])c1"
**A:** 32

**Q:** Answer with the recorded MIC99 for the molecule listed here: "CCCCCCCCCCCCn1c(SCc2ccccc2)nnc1-c1cc([N+](=O)[O-])cc([N+](=O)[O-])c1"
**A:** 4

**Q:** Answer with the recorded MIC99 for the molecule listed here: "O=[N+]([O-])c1cc(Cn2c(SCc3ccc(Cl)c(Cl)c3)nnc2-c2ccccc2)cc([N+](=O)[O-])c1"
**A:** 16

**Q:** Answer with the recorded MIC99 for the molecule listed here: "O=[N+]([O-])c1cc(-c2nnc(SCc3ccc(Cl)c(Cl)c3)n2Cc2ccccc2)cc([N+](=O)[O-])c1"
**A:** 0.125

**Q:** Answer with the recorded MIC99 for the molecule listed here: "O=[N+]([O-])c1cc(-c2nnc(SCc3ccc(Cl)c(Cl)c3)n2Cc2ccccc2)cc(C(F)(F)F)c1"
**A:** 8

**Q:** Answer with the recorded MIC99 for the molecule listed here: "COc1ccc(CSc2nnc(-c3cc([N+](=O)[O-])cc(C(F)(F)F)c3)n2Cc2ccccc2)cc1"
**A:** 1

**Q:** Answer with the recorded MIC99 for the molecule listed here: "O=[N+]([O-])c1cc(CSc2nnc(C3CCCCC3)n2Cc2ccccc2)cc(C(F)(F)F)c1"
**A:** 32

**Q:** Answer with the recorded MIC99 for the molecule listed here: "Cn1c(SCc2ccc(Cl)cc2)nnc1-c1cc([N+](=O)[O-])cc([N+](=O)[O-])c1"
**A:** 0.5

**Q:** Answer with the recorded MIC99 for the molecule listed here: NNC(=O)c1ccncc1 [ISONIAZID]
**A:** 4

**Q:** Answer with the recorded MIC99 for the molecule listed here: "CCCCCCn1c(SCc2cc([N+](=O)[O-])cc([N+](=O)[O-])c2)nnc1-c1ccccc1"
**A:** 2
